Target: SADS FP peptide (SADS)
Assay: peptide ELISA

{"columns": ["binder", "EC50 [µg/mL]"],
 "data": [
  ["fp.009 (antibody, V domains shown) VH: VQLVESGGGVVQPGTSLTLSCEASGFTFSNYAMHWVRQAPGKGLEWVAIISFDTRNKKFAGSVQGRFSISRDNAKNSIYLQMNNLRPEDTGIYYCARDVFLSDYDSRGFDRTRGGFDYWGQGTLVTVSS VL: EIVMTQSPATLSVSPGEKATLSCRASESVGSSLAWYQQKLGQAPRLLIYGASTRATGIPARFSGSGSGAEFTLTISSLQSEDFAIYYCQQYGDWPLLTFGGGTKVEIK", 0.0247],
  ["fp.011 (antibody, V domains shown) VH: EVQLLESGGGLVQPGGSLRLSCAGSGFTFNNYAMTWVRQAPGRGLEWVSAISGSGGSSHYADSVKGRFTITRDNSKNTLYLQMNSLRAEDTAVYYCAFIDYYSGWSYYYGLDVWGQGTTVTVSS VL: EIVLTQSPATLSLSPGERATLSCRASQGVRTYVAWYQQKPGQAPRLLIYDASNRATGIPARFSGSGSGTDFTLTISSLEPEDFAVYYCQQRYNWPLCSFGQGTKLEIK", 0.0276],
  ["fp.001 (antibody, V domains shown) VH: VQLVESGGGVVQPGRPLRLSCSGSGFIFSNYAMHWVRQAPGKGLEWVAIISFDARNKRYADSVEGRFTISRDNSKNILYLQMNSLRLEDSAVYFCARDLFLSDYDNGVYDPTRGGFDYWGQGTLVTVSS VL: EIVMTQSPATLSLSPGERATLSCRASQSVNNRLAWYQQKLGQPPRLLISGASTRATGIPARFTGSGSGTEFTLTISSLQSEDFAVYYCQQYHDWPLLSFGGGTKVEIK", 0.0255],
  ["fp.004 (antibody, V domains shown) VH: VQLVESGGGVVQPGTSLRLSCVASGFTFSNYAMHWVRQAPGKGLEWVAIISFDTRNTASAASVKGRFNISRDNSKNSLYLQMNSLRPEDTGVYYCARDLFLSDYDSRGYDPITGGFDCWGQGTLVTVSS VL: EIVMTQSPAALSVSPGEGATLSCRASQSVGSRLAWYQQKLGRPPRLLIYGASTRATGIPARFSGSGSGTEFTLTISSLQSEDFAVYYCQQYNDWPLLTFGGGTKVKIK", 0.0276],
  ["fp.003 (antibody, V domains shown) VH: VQLVESGGGVVQPGTSLRLSCTASGFSFSNYAMHWVRQAPGKGLEWVAIISFDTRNKEFADSVKGRFSISRDNSKNSLNLQMNSLRPEDTGVYYCARDLFLSDYDSRGYEPSRGGFDYWGQGTLVTVSS VL: EIVMTQSPATLSVSPGERATLSCRASQSVSSSLAWYQQKLGQPPRLLIYGASTRATGIPARFSGSGSGTEFTLTISSLKSEDSAVYYCQQYNDWPLLSFGGGTKVEIK", 0.0305],
  ["fp.008 (antibody, V domains shown) VH: VQLVESGGGVVQPGRSLRLSCRASGFRFNNYAMHWVRQAPGKGLEWVAIISYEARNEKYAASVKGRFSISRDNAKNTLYLQMNSLRPEDTAIYYCARDVFLSDYDQSGYDVTRGGFDYWGQGTLVTVSS VL: EIVMTQSPATLSVSPGESATLSCRASQSVSSSLAWYQHKFGQAPRLLIYGASTRATGIPDRFSGSGSGMEFTLTISSLQSEDVAIYYCQQYGDWPLVTFGGGTKVEIK", 0.024],
  ["fp.002 (antibody, V domains shown) VH: VQLVESGGGVVQPGTSLRLSCAGSGFNFDNYAIHWVRQAPGQGLEWVAIISYEARNKKYAGSVTGRFSISRDNSKSMVYLQMDSLRGEDTAVYYCARDLFLSDYDRSGYDPTRGGFDLWGQGTLVTVSS VL: EIVMTQSPATLSVSPGERATLSCRASQSVSSSLAWYQHKLGQAPRLLIYGASTRATGIPGRFSGSGSGTEFTLTISSLQSEDVAIYYCQQYGDWPLVTFGGGTKVEIK", 0.0252]
]}
